Cited source: ChEMBL document CHEMBL5252513

biological target: Transcription intermediary factor 1-alpha (Homo sapiens, UniProt O15164); test: Binding affinity to TRIM24 bromodomain (unknown origin) incubated for 60 mins by TR-FRET assay
Sequence (O15164 whole entry): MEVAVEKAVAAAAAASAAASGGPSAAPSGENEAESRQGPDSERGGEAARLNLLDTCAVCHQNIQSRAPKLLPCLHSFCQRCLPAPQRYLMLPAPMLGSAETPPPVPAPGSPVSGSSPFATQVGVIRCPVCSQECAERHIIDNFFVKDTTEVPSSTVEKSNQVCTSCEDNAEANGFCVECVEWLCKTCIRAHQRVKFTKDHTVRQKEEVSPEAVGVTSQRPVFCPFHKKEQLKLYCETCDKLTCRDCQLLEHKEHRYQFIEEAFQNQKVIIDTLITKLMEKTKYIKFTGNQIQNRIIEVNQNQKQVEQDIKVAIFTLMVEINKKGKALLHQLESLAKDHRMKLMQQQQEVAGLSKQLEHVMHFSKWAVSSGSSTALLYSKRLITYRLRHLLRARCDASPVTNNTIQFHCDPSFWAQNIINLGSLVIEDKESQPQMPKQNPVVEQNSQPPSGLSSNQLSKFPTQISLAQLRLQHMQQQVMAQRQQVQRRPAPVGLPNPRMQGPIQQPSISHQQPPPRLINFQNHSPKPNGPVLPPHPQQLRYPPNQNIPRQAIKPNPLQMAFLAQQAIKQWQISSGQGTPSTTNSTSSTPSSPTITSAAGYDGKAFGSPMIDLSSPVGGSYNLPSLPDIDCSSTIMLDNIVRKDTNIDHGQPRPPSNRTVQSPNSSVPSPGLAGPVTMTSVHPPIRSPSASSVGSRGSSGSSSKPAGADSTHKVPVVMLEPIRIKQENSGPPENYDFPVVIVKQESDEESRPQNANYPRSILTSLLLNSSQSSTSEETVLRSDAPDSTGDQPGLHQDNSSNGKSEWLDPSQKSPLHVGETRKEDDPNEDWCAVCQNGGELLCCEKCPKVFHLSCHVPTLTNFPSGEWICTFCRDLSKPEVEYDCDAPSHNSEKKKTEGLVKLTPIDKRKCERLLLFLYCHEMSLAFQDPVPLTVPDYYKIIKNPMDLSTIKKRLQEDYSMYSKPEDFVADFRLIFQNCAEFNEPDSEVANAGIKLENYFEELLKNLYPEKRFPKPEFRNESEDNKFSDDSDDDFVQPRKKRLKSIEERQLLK
pIC50: −log10 of the molar value.
MEASUREMENT NAME: pIC50

Exercise: State its pIC50 on Transcription intermediary factor 1-alpha (Homo sapiens, UniProt O15164): Cc1noc2c1-c1ccccc1C(c1ccc(Cl)cc1)=N[C@H]2CC(N)=O [PELABRESIB]
Key: < 4.70

====

assay: Intrinsic clearance in mouse liver microsomes; assay type: ADME, Microsome; settings: read-out: CLH
predicted hepatic clearance for assorted molecules
Enter your answer as a number in mL/min/kg; do not include the unit.

Exercise: Can you look up the measured predicted hepatic clearance of `COc1ccc(C2=N[C@@H](CC(N)=O)c3onc(C)c3-c3ccccc32)cc1` for me?
Key: 83

Exercise: Suppose we examine the molecule CCNC(=O)NC1N=C(c2ccc(Cl)cc2)c2ccccc2-c2c(C)noc21 (stereo not given) ; what predicted hepatic clearance value has been reported?
Key: 38

Exercise: Any idea what its predicted hepatic clearance is? The molecule is `Cc1noc2c1-c1ccc(-c3ccc(N)nc3)cc1C(c1ccc(Cl)cc1)=N[C@H]2CC(N)=O`
Key: 36

====

Recorded measurements of pIC50, one per entry
target: Bromodomain-containing protein 4 (Homo sapiens); assay: Inhibition of BRD4 BD1 (unknown origin) using biotinylated ligand incubated for 60 mins by TR-FRET assay
// pIC50: -log10(molar conc.)

Study these solved cases before continuing.
Cc1onc2c1-c1ccccc1C(c1ccc(Cl)cc1)=NC2 : 5.89
Cc1noc2c1-c1ccc(=O)n(C)c1C(c1ccc(Cl)cc1)=NC2 : 6.12

Shifting focus to the molecule that follows.
Exercise: Bench note: what pIC50 did `Cc1noc2c1-c1ccnc(N)c1C(c1ccc(Cl)cc1)=NC2` show?
Key: 7.05

====

assay: Tmax in human patient with progression lymphoma at 300 mg,po QD consecutively for 14 days; format: ADME; conditions: in vivo, time 14 day
MEASUREMENT NAME: Tmax (h)
All answers are understood in h, so give the number only.

Exercise: Endpoint output: Tmax of Cc1noc2c1-c1ccccc1C(c1ccc(Cl)cc1)=N[C@H]2CC(N)=O [PELABRESIB] . Value?
Key: 1.8

====

assay: Intrinsic clearance in dog liver microsomes; format: ADME, Canis lupus familiaris, Microsome; details: read-out: CLH
MEASUREMENT NAME: predicted hepatic clearance
Remember to follow the number with its unit.

Below, 4 compounds whose answers are already recorded.
COCCNC(=O)C[C@@H]1N=C(c2ccc(Cl)cc2)c2ccccc2-c2c(C)noc21 : 30 mL/min/kg
Cc1noc2c1-c1ccccc1C(c1ccc(Cl)cc1)=NC2C(N)=O (stereo not given) : 29 mL/min/kg
COc1ccc2c(c1)C(c1ccc(Cl)cc1)=N[C@@H](CC(N)=O)c1onc(C)c1-2 : 21 mL/min/kg
Cc1noc2c1-c1ccccc1C(c1ccc(Cl)cc1)=N[C@H]2CC(N)=O : 20 mL/min/kg

Then this compound:
Exercise: What does the data say about its predicted hepatic clearance? Entry: `CCNC(=O)C[C@@H]1N=C(c2ccc(Cl)cc2)c2ccccc2-c2c(C)noc21`
Key: 29 mL/min/kg

====

target: SWI/SNF-related matrix-associated actin-dependent regulator of chromatin subfamily A member 4 (Homo sapiens, UniProt P51532); test: Binding affinity to BRG1 bromodomain (unknown origin) incubated for 60 mins by TR-FRET assay
Sequence (P51532 whole entry): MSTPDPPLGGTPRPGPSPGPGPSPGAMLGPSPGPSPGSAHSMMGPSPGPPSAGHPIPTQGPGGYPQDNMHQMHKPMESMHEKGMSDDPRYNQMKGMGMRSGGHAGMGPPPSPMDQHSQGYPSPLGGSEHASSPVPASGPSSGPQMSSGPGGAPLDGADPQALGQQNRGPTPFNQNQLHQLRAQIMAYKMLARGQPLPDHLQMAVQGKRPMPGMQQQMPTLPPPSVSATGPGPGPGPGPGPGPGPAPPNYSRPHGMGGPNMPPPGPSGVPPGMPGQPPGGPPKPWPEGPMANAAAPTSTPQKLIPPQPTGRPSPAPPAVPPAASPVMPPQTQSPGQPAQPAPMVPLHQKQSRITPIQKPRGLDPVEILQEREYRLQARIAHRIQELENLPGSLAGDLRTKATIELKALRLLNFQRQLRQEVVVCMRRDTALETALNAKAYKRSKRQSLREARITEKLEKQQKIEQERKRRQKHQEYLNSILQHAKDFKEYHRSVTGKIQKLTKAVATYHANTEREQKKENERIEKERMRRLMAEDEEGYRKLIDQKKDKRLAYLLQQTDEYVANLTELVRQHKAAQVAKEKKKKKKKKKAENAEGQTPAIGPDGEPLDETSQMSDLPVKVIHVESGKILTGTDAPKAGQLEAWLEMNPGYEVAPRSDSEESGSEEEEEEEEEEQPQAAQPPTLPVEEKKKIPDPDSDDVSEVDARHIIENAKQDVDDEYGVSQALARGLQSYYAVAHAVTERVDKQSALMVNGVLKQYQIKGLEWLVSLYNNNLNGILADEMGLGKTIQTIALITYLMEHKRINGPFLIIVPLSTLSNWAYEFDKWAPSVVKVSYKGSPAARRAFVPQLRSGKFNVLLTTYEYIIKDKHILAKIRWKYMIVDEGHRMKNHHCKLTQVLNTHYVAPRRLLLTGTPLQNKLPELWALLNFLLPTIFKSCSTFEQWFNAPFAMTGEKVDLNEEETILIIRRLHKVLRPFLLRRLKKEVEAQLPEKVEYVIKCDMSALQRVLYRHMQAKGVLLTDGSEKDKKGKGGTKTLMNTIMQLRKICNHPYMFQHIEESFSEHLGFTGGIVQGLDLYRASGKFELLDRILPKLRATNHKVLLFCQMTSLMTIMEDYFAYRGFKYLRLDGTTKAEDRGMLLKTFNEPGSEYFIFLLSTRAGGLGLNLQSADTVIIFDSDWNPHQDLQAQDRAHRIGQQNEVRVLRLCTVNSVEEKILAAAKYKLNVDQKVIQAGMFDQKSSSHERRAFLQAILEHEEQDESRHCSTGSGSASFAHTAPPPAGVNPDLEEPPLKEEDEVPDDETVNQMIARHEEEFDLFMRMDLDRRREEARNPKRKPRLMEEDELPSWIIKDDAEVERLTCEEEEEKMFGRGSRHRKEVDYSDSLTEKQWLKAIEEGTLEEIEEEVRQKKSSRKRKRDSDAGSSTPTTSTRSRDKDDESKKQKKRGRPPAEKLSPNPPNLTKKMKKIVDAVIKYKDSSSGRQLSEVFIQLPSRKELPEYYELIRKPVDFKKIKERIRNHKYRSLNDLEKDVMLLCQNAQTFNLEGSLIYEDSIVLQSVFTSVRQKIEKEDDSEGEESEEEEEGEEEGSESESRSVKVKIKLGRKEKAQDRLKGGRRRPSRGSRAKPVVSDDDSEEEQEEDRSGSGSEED
MEASUREMENT NAME: IC50

Exercise: Which IC50 value belongs to Cc1noc2c1-c1ccccc1C(c1ccc(Cl)cc1)=N[C@H]2CC(N)=O [PELABRESIB] ?
Key: > 20 µM

====

assay: Intrinsic clearance in human liver microsomes; format: ADME, Microsome; conditions: read-out: CLH
Threshold check on predicted hepatic clearance: at or above 10 mL/min/kg gives 1, strictly below gives -1.

# count of solved cases: 5
COCCNC(=O)C[C@@H]1N=C(c2ccc(Cl)cc2)c2ccccc2-c2c(C)noc21 : 1
CCNC(=O)C[C@@H]1N=C(c2ccc(Cl)cc2)c2ccccc2-c2c(C)noc21 : 1
Cc1cccc2c1C(c1ccc(Cl)cc1)=N[C@@H](CC(N)=O)c1onc(C)c1-2 : 1
Cc1noc2c1-c1ccc(-c3cn(C)cn3)cc1C(c1ccc(Cl)cc1)=N[C@H]2CC(N)=O : 1
CCNC(=O)NC1N=C(c2ccc(Cl)cc2)c2ccccc2-c2c(C)noc21 (stereo not given) : 1

Continue with the next compound.
Exercise: Is reported predicted hepatic clearance greater than or equal to 10 mL/min/kg here: Cc1noc2c1-c1ccccc1C(c1ccc(Cl)cc1)=NC2C(N)=O (stereo not given)
Key: 1

====

assay: AUC (0 to 24 hrs) in human patient with progression lymphoma at 300 mg,po QD and measured after 24 hrs; format: ADME; set-up: time 24 hrs, dose 300 mg, route po; conditions: in vivo
MEASUREMENT NAME: AUC at 24 h (µM·h)
Give the value, in units of µM·h, as a plain number.

Exercise: Reported AUC at 24 h, compound `Cc1noc2c1-c1ccccc1C(c1ccc(Cl)cc1)=N[C@H]2CC(N)=O` : ____
Key: 49

====

experiment: Cmax in mouse at 10 mg/kg,sc; assay type: ADME, organism-based; parameters: dose 10 mg/kg, route sc; settings: in vivo
MEASUREMENT NAME: Cmax (µM)
Hi! Could you send only the number? It should be in µM, unit omitted.

Exercise: # query: Cmax of entry Cc1noc2c1-c1ccccc1C(c1ccc(Cl)cc1)=N[C@H]2CC(N)=O [PELABRESIB]
Key: 8.4

====

Catalogue of predicted hepatic clearance readings, one per entry.
assay: Intrinsic clearance in dog liver microsomes; assay type: ADME, Canis lupus familiaris, Microsome; conditions: read-out: CLH

Please review the following examples before continuing.
Cc1noc2c1-c1ccccc1C(c1ccccc1)=N[C@H]2CC(N)=O : 17 mL/min/kg
CCNC(=O)NC1N=C(c2ccc(Cl)cc2)c2ccccc2-c2c(C)noc21 (stereo not given) : 21 mL/min/kg
Cc1noc2c1-c1ccccc1C(c1ccc(Cl)cc1)=NC2 : 29 mL/min/kg
Cc1ccc(C2=N[C@@H](CC(N)=O)c3onc(C)c3-c3ccccc32)cc1 : 29 mL/min/kg
Cc1noc2c1-c1ccccc1C(c1ccc(C#N)cc1)=N[C@H]2CC(N)=O : < 14 mL/min/kg

Exercise: Can you share its predicted hepatic clearance? I mean this molecule: `Cc1noc2c1-c1ccc(-c3ccc(N)nc3)cc1C(c1ccc(Cl)cc1)=N[C@H]2CC(N)=O`
Key: 25 mL/min/kg

Exercise: Fill in: predicted hepatic clearance of `Cc1cccc2c1C(c1ccc(Cl)cc1)=N[C@@H](CC(N)=O)c1onc(C)c1-2` is ___
Key: 24 mL/min/kg

Exercise: Fill in: predicted hepatic clearance of `Cc1noc2c1-c1ccc(-c3cn(C)cn3)cc1C(c1ccc(Cl)cc1)=N[C@H]2CC(N)=O` is ___
Key: 23 mL/min/kg

Exercise: Endpoint output: predicted hepatic clearance of `COc1ccc(C2=N[C@@H](CC(N)=O)c3onc(C)c3-c3ccccc32)cc1` . Value?
Key: 26 mL/min/kg

Exercise: I would be grateful if you could share the reported predicted hepatic clearance for Cc1noc2c1-c1ccccc1C(c1ccc(Cl)cc1)=N[C@H]2CC(N)C(F)(F)F (stereo not given in full) .
Key: 27 mL/min/kg

====

target: Bromodomain-containing protein 9 (Homo sapiens); experiment: Displacement of biotinylated JQ1 from BRD9 bromodomain (unknown origin) incubated for 20 mins by AlphaLISA assay
Sequence (Q9H8M2 whole entry): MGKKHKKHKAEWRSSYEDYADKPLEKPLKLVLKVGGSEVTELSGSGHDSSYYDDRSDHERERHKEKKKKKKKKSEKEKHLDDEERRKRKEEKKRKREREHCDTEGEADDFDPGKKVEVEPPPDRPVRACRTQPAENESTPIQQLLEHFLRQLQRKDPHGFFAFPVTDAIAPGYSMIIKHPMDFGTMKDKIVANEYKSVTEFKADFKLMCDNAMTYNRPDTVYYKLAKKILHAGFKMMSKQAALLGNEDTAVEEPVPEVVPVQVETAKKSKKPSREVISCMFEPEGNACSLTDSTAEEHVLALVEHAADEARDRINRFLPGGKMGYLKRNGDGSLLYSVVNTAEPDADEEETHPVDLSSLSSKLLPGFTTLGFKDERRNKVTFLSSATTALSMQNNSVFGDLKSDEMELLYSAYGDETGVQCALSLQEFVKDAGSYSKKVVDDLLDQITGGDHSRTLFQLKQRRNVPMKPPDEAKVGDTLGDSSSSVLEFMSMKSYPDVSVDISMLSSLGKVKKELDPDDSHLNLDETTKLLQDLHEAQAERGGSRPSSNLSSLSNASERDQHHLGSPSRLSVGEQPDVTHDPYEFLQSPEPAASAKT
MEASUREMENT NAME: IC50

Exercise: // map `Cc1noc2c1-c1ccccc1C(c1ccc(Cl)cc1)=N[C@H]2CC(N)=O` to recorded IC50 (system: Bromodomain-containing protein 9 (Homo sapiens))
Key: > 80 µM

====

test: Clearance in rat assessed as liver blood flow at 1 mg/kg,iv; assay type: ADME, organism-based; conditions: in vivo
MEASUREMENT NAME: QH (%)
Unit % implied. Number only.

These solved cases illustrate the format of a correct answer.
COc1ccc2c(c1)C(c1ccc(Cl)cc1)=N[C@@H](CC(N)=O)c1onc(C)c1-2 : 66
Cc1cccc2c1C(c1ccc(Cl)cc1)=N[C@@H](CC(N)=O)c1onc(C)c1-2 : 76
Cc1noc2c1-c1ccc(-c3ccc(N)nc3)cc1C(c1ccc(Cl)cc1)=N[C@H]2CC(N)=O : 230
Cc1noc2c1-c1ccccc1C(c1ccc(Cl)cc1)=N[C@H]2CC(N)=O [PELABRESIB] : 36
COCCNC(=O)C[C@@H]1N=C(c2ccc(Cl)cc2)c2ccccc2-c2c(C)noc21 : 66

Okay, next one:
Exercise: State the recorded QH for this entry: `Cc1noc2c1-c1ccccc1C(c1ccc(C#N)cc1)=N[C@H]2CC(N)=O`
Key: 39

====

assay: Protein binding in human plasma; format: ADME, cell-free; settings: read-out: PPB (converted)
Tick True if fraction unbound is 0.02 or greater. Tick False if fraction unbound is less than 0.02.

Observe how each entry below is paired with its result.
COc1ccc2c(c1)C(c1ccc(Cl)cc1)=N[C@@H](CC(N)=O)c1onc(C)c1-2 : True
CCNC(=O)NC1N=C(c2ccc(Cl)cc2)c2ccccc2-c2c(C)noc21 (stereo not given) : True
Cc1noc2c1-c1ccc(-c3ccc(N)nc3)cc1C(c1ccc(Cl)cc1)=N[C@H]2CC(N)=O : True

Exercise: In plain terms: is recorded fraction unbound at least 0.02 for Cc1noc2c1-c1ccccc1C(c1ccc(Cl)cc1)=N[C@H]2CC(N)=O [PELABRESIB] ?
Key: True

Exercise: I'd appreciate it if you could say whether `COCCNC(=O)C[C@@H]1N=C(c2ccc(Cl)cc2)c2ccccc2-c2c(C)noc21` has fraction unbound at least equal to 0.02.
Key: False

Exercise: Reported fraction unbound reaches at least 0.02 for `Cc1noc2c1-c1ccc(-c3cn(C)cn3)cc1C(c1ccc(Cl)cc1)=N[C@H]2CC(N)=O` ?
Key: True

Exercise: Can `Cc1noc2c1-c1ccccc1C(c1ccc(Cl)cc1)=NC2` be said to have fraction unbound at or above 0.02?
Key: False
